Here, each record is paired with measured inhibition at 10 µM data.
Target: lipoxygenase (Homo sapiens)
Construct: endogenous in cells
Sequence (P09917 whole entry): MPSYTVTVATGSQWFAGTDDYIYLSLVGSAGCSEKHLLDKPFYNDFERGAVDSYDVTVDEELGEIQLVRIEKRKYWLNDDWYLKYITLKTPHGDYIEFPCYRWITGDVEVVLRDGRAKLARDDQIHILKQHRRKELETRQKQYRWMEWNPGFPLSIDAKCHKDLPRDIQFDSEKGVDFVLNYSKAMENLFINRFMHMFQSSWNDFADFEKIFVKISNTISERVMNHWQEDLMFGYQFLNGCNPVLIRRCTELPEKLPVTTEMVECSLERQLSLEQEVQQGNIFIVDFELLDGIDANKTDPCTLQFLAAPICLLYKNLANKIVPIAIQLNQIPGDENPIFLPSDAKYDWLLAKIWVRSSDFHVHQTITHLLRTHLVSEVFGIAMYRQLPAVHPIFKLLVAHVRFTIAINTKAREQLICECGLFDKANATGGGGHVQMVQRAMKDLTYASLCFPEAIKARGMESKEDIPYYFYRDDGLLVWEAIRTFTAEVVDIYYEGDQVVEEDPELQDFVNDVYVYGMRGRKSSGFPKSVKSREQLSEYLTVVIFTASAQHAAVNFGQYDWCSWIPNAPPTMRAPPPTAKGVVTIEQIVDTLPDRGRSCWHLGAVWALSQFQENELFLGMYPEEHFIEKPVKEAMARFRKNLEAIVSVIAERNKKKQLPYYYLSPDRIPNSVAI
Assay: Inhibition of lipoxygenase activity, LTB4 measured by radioimmunoassay
Type: cell-based
Settings: concentration of 10^-5 M, washed human polynuclear cells activated by calcium; read-out: inhibition of lipoxygenase action (LTB4 produced)

* Cn1c(=O)oc2cc3c(cc21)C(c1ccccc1)C(=Cc1cc(C(C)(C)C)c(O)c(C(C)(C)C)c1)C3=O (centres unmarked) [Example 36] | ~60%
* CC(C)(Sc1cc(C(C)(C)C)c(O)c(C(C)(C)C)c1)Sc1cc(C(C)(C)C)c(O)c(C(C)(C)C)c1 [probucol, reference compound] | 44%
* Cn1c(=O)oc2cc(C(=O)C=Cc3cc(C(C)(C)C)c(O)c(C(C)(C)C)c3)ccc21 [Example 5] | ~60%
* Cn1c(=O)oc2ccc(C(=O)C=Cc3cc(C(C)(C)C)c(O)c(C(C)(C)C)c3)cc21 [Example 1] | ~80%

**Query** Which inhibition at 10 µM value is on record for CC(C)(C)c1cc(C=C2C(=O)c3cc4oc(=O)[nH]c4cc3C2c2ccccc2)cc(C(C)(C)C)c1O (centres unmarked) [Example 35] ?
**Result** ~60%
